Target: 15-hydroxyprostaglandin dehydrogenase [NAD(+)] (Homo sapiens, UniProt P15428)
Sequence (P15428 whole entry): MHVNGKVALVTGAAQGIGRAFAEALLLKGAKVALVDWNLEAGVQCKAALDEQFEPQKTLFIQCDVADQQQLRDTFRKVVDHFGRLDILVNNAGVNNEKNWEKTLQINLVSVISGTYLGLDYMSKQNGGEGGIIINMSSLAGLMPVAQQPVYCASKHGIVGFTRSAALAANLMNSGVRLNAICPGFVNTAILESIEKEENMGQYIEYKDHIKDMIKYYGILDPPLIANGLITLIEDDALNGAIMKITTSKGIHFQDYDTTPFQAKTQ
pIC50: −log10 of the molar value.
Returns one of Condition met or Condition not met; Condition met when pIC50 is >= 7.

{"Molecule": "Cc1cccc(-n2cnc3cc(C(=O)N4CCCC(C)C4)ccc32)c1 (stereo unspecified)", "Experimental Target": "15-hydroxyprostaglandin dehydrogenase [NAD(+)] (Homo sapiens, UniProt P15428)", "Category Label": "Condition met"}
{"Molecule": "CC(C)(C)c1cccc(-n2cnc3cc(C(=O)N4CCCCC4)ccc32)c1", "Experimental Target": "15-hydroxyprostaglandin dehydrogenase [NAD(+)] (Homo sapiens, UniProt P15428)", "Category Label": "Condition not met"}
{"Molecule": "Cc1cccc(-n2cnc3cc(C(=O)N4CCCC(C(C)C)C4)ccc32)c1 (stereo unspecified)", "Experimental Target": "15-hydroxyprostaglandin dehydrogenase [NAD(+)] (Homo sapiens, UniProt P15428)", "Category Label": "Condition met"}
{"Molecule": "CCCCNC(=O)c1ccc2c(c1)ncn2-c1cccc(C)c1", "Experimental Target": "15-hydroxyprostaglandin dehydrogenase [NAD(+)] (Homo sapiens, UniProt P15428)", "Category Label": "Condition not met"}
{"Molecule": "Cc1cc(-c2nnc3n2CCCCC3)c(C)n1-c1cccc(C(F)(F)F)c1", "Experimental Target": "15-hydroxyprostaglandin dehydrogenase [NAD(+)] (Homo sapiens, UniProt P15428)", "Category Label": "Condition met"}
{"Molecule": "Cc1cccc(-n2cnc3cc(C(=O)N4CCC(C(F)(F)F)CC4)ccc32)c1", "Experimental Target": "15-hydroxyprostaglandin dehydrogenase [NAD(+)] (Homo sapiens, UniProt P15428)", "Category Label": "Condition not met"}
{"Molecule": "COc1cccc(-n2cnc3cc(C(=O)N4CCCCC4)ccc32)c1", "Experimental Target": "15-hydroxyprostaglandin dehydrogenase [NAD(+)] (Homo sapiens, UniProt P15428)", "Category Label": "Condition met"}
{"Molecule": "Cc1cc(-c2nnc3n2CCCCC3)c(C)n1-c1ccncc1", "Experimental Target": "15-hydroxyprostaglandin dehydrogenase [NAD(+)] (Homo sapiens, UniProt P15428)", "Category Label": "Condition not met"}
{"Molecule": "Cc1cccc(-n2cnc3cc(C(=O)N4CCN(C)CC4)ccc32)c1", "Experimental Target": "15-hydroxyprostaglandin dehydrogenase [NAD(+)] (Homo sapiens, UniProt P15428)", "Category Label": "Condition not met"}
